- System: Yap1 mRNA
- Method: Dose-dependent inhibition of human Yap1 in A-431 cells (Example 8, 10,000 cells per well, RTS4814)
- Type: cell-based
- Conditions Used: 31.3 nM; A-431 cells, 10,000 cells per well, free uptake, approximately 48 hours, RTS4814
Strand notation (5' to 3'): a small letter for the sugar, then the base; units joined by * are phosphorothioate-linked, units joined directly phosphodiester-linked; [ ] holds rarer units or linkages, { } end groups; capitals alone tell only the bases. k = constrained ethyl (cEt); [5mC] = 5-methylcytosine; d = 2'-deoxy (DNA)
// label = t if Yap1 mRNA, % UTC is not less than 50 % UTC, otherwise f

Here's what some known entries look like.
Substance	Assayed Target	Assigned Label
1074800 (k[5mC]*kA*kA*dA*dT*dA*dG*dT*dG*d[5mC]*dT*dT*dT*kG*kG*kA; antisense) [compound 1074800]	Yap1 mRNA	f
1075816 (kT*kA*kG*dT*dA*dT*dA*dA*dA*dG*d[5mC]*dA*dG*kG*kG*k[5mC]; antisense) [compound 1075816]	Yap1 mRNA	t
1074245 (antisense kA*kG*kA*dA*dG*dT*dA*dT*d[5mC]*dT*d[5mC]*dT*dG*kA*k[5mC]*k[5mC]) [compound 1074245]	Yap1 mRNA	f
1075939 (antisense k[5mC]*kT*kT*dG*dA*dA*dT*dA*dT*dA*dT*dG*dG*kG*kT*kT) [compound 1075939]	Yap1 mRNA	f

Task item: Reported Yap1 mRNA, % UTC at or above 50 % UTC? 1074595 (DNA kT*kA*kG*dA*dA*dG*dT*dA*dG*dG*dA*dG*d[5mC]*kA*kA*kG; antisense) [compound 1074595]
Reply: t

Task item: Reported Yap1 mRNA, % UTC at or above 50 % UTC? 1074411 (kT*kG*kT*dG*dA*dA*dA*dG*dA*dG*dG*dT*d[5mC]*kA*kG*k[5mC]; antisense) [compound 1074411]
Reply: f
